target: T1, biotin-peptide MTPTDFTSPI (human, also: prints MTPTDFTSP, without I10); experiment: ELISA biotin-peptide; scFv 10 ug/mL; repI
T1 peptide: Biotin-MTPTDFTSPI
Where no end group is shown, it is not given here. The star is where a group is joined. Biotin = O=C1N[C@H]2[C@H](CS[C@H]2CCCCC(=O)*)N1
value.kind: OD450
State the result as a value with its unit after it.

[in] Which OD450 is listed for CCR9_HUM2 scFv (humanized anti-CCR9 scFv, SEQ ID NO: 17 with C-terminal 6xHis tag) (scFv) scFv: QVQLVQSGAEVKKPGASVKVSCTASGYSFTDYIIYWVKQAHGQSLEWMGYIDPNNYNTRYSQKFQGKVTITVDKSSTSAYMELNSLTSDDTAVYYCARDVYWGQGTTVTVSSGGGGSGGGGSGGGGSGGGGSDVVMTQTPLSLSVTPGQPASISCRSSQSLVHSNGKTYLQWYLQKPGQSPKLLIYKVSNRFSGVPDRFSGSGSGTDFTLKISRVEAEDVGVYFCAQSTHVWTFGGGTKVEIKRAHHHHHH ?
[out] 0.09 OD
